Examples of binders with documented max % inhibition, Abeta x-40 in mouse cortical neurons follow.
# subject_of_test: BACE1 endogenous to primary cortical neurons from E16.5 CD1 mice (mouse, UniProt P56818 46-501)
# Sequence (P56818 46-501): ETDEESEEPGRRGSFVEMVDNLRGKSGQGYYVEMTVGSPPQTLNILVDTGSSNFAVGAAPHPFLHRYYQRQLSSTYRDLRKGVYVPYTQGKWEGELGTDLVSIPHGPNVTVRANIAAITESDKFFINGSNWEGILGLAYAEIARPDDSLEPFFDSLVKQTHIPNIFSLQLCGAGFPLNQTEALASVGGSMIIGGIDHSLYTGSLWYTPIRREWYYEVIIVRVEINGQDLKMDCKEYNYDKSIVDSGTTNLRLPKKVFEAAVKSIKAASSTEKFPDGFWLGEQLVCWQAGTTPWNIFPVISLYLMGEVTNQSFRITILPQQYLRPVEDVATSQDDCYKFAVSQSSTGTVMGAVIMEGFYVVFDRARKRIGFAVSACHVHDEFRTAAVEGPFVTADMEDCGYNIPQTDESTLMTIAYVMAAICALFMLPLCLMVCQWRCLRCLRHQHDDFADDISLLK
# protocol_notes: cell-based or functional assay
Hi! Could you send only the number? It should be in %, unit omitted.

Observe how each entry below is paired with its result.
# binder, result
records = [
    ("6294 (antibody, V domains shown) VH: QLQLQESGPGLVKPSETLSLTCTVSGGSISSSSHYWGWIRQPPGKGLEWIGMIYYSGSTWYNPSLKSRVTISVDTSKNQFSLKLSSVTAADTAVYYCARVGHGVSYFDLWGRGTLVTVSS VL: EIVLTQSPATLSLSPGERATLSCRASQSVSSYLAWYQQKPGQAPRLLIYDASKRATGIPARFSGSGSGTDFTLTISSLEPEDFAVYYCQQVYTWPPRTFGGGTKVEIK", 59),
    ("5933 (antibody, V domains shown) VH: QLQLQESGPGLVKPSETLSLTCTVSGGSISRGSYYWGWIRQPPGKGLEWIGMIYYSGSTWYNPSLKSRVTISVDTSKNQFSLKLSSVTAADTAVYYCARVGHGVSYFDLWGRGTLVTVSS VL: EIVLTQSPATLSLSPGERATLSCRASQSVSSYLAWYQQKPGQAPRLLIYGASKRATGIPARFSGSGSGTDFTLTISSLEPEDFAVYYCQQVYTWPPRTFGGGTKVEIK", 67),
]

Kindly review the next binder as well.
Can you look up the measured max % inhibition, Abeta x-40 in mouse cortical neurons of 6273 (antibody, V domains shown) VH: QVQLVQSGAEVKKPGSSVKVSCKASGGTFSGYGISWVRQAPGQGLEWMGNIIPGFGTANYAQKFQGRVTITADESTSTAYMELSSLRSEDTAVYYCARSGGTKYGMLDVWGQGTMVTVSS VL: EIVMTQSPATLSVSPGERATLSCRASQSVSSNIAWYQQKPGQAPRLLIYGASTRATGIPARFSGSGSGTEFTLTISSLQSEDFAVYYCQQLLLWPPRTFGGGTKVEIK for me? 82
